assayed-target: human mGluR5a receptors (Homo sapiens (Human))
Sequence (P41594 other isoform, or with tags, fused parts or gaps): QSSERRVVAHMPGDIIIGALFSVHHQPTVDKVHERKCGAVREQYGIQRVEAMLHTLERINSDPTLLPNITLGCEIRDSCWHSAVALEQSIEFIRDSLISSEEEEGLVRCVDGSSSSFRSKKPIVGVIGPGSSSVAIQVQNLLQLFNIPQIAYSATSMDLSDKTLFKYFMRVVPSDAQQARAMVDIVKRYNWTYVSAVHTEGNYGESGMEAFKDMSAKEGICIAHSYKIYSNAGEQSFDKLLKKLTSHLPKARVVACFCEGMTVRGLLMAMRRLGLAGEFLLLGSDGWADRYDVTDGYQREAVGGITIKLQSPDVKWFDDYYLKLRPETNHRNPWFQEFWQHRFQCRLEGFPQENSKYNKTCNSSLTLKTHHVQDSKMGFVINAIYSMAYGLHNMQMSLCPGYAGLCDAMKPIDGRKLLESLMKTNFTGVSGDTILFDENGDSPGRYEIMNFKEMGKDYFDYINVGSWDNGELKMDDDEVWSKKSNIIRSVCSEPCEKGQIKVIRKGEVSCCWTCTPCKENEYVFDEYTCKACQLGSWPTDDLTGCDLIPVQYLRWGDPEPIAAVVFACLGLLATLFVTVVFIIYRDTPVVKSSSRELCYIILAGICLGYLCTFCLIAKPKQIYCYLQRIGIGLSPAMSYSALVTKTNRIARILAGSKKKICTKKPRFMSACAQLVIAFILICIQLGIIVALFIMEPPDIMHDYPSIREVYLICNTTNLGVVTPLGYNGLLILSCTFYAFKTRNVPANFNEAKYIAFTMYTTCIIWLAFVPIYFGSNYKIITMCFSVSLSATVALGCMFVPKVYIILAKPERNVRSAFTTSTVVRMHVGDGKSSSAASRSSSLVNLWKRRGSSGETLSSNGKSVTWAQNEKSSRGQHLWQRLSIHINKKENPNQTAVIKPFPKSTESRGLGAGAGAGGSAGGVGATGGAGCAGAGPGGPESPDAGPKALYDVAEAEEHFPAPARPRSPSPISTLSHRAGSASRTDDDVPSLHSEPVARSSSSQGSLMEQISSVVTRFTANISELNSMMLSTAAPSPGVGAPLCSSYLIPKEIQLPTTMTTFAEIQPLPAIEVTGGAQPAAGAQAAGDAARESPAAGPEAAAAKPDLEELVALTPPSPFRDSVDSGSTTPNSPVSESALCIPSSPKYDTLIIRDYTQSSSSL
assay-procedure: inhibition of glutamate-induced elevation of intracellular calcium in L(tk-) cells expressing human mGluR5a
Format: cell-based
conditions-used: glutamate-induced intracellular calcium elevation, L(tk-) cells expressing human mGluR5a; read-out: mGluR5 IC50
Would you kindly list IC50 for each of these compounds?
Answers are plain numbers, in nM.

Example entries begin here.
compound="O=C1CN=C(n2cnc(C3CC3)n2)C=C2c3ccc(F)c(-c4cccnc4F)c3CCN12 [Example 99q]" display_unit=nM numeric_readout=88
compound="O=C1CN=C(c2cccs2)C=C2c3cccc(Br)c3CCN12 [Example 29]" display_unit=nM numeric_readout=90

Now for another entry.
INPUT: Consider the compound shown here: Cc1nc(-c2cccc3c2CCN2C(=O)CN=C(n4cnc(C5CC5)n4)C=C32)co1 [Example 108a] What is its recorded IC50?
OUTPUT: 91

---

assayed-target: UniProt Q13255
Sequence (Q13255 19-1194): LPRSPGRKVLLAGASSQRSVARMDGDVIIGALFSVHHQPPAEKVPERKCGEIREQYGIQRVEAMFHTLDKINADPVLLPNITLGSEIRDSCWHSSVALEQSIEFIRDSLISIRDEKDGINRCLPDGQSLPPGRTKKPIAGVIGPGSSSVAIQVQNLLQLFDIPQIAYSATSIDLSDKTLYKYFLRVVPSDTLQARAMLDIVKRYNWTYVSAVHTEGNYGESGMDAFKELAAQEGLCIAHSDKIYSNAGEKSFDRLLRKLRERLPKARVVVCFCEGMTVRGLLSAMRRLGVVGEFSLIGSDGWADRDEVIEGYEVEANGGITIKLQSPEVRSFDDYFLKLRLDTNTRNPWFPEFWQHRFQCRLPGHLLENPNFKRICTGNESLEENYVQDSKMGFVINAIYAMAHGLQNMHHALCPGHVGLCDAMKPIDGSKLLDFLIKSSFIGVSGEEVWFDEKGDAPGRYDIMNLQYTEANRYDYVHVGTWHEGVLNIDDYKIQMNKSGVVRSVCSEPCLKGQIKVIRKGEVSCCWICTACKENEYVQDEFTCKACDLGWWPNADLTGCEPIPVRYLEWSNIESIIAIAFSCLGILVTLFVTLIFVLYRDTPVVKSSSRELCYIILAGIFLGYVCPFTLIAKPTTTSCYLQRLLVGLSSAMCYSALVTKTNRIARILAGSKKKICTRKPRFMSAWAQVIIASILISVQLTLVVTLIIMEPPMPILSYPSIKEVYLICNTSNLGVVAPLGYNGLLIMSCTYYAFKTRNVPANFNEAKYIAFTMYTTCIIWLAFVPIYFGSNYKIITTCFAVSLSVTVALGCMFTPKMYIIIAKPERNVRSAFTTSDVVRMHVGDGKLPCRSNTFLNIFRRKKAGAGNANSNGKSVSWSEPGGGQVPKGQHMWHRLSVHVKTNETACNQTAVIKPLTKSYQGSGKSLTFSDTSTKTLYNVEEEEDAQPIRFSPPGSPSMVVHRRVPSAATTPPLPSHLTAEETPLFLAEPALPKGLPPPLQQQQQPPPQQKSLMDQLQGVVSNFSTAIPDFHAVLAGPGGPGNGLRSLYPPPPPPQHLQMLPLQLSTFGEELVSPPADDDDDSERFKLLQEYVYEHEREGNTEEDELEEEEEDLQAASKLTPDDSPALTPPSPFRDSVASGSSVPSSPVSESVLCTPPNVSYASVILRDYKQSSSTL
assay-procedure: mGluR1 antagonism, L-glutamate induced intracellular calcium increase (FLIPR) in CHO cells stably expressing human mGluR1
Assay type: cell-based
conditions-used: L-glutamate induced intracellular calcium, CHO cells expressing human mGluR1, FLIPR
pIC50: −log10 of the molar value.
measured-quantity: pIC50

molecule="CCc1ncn(C2=NCC(=O)N3CCc4c(cccc4-c4ccc(F)nc4)C3=C2)n1 [Example 102]" assayed_target="UniProt Q13255" measured_quantity=pIC50 result="< 5.00"
molecule="O=C1CN=C(n2cnc(C3CC3)n2)C=C2c3cccc(-c4cnc(F)cn4)c3CCN12 [Example 136]" assayed_target="UniProt Q13255" measured_quantity=pIC50 result="< 5.70"
molecule="C=C(C)c1cccc2c1CCN1C(=O)CN=C(n3cnc([C@@H](C)OC)c3)C=C21 [Example 118]" assayed_target="UniProt Q13255" measured_quantity=pIC50 result="< 5.00"
molecule="COc1cccc(C2=NCC(=O)N3CCc4c(cccc4C(C)(C)O)C3=C2)c1 [Example 26]" assayed_target="UniProt Q13255" measured_quantity=pIC50 result="< 5.00"
molecule="COc1cccc(C2=NCC(=O)N3CCc4c(OC)cc(Cl)cc4C3=C2)c1 [Example 14]" assayed_target="UniProt Q13255" measured_quantity=pIC50 result="< 5.00"

// switching to the query molecule
INPUT: Bench note: what pIC50 did COc1cc(C2=NCC(=O)N3CCc4c(cccc4N4CCOCC4)C3=C2)ccn1 [Example 22] show?
OUTPUT: < 5.00
